tested on: Salmonella typhimurium; experiment: Mutagenicity in Salmonella typhimurium TA1538 by Ames test; type: toxicity, organism-based; settings: salmonella enterica subsp. enterica serovar typhimurium
endpoint.name: Activity

entry.smiles: CC(C)CCCCCCCCCCCCC(=O)N[C@@H]1[C@@H](O)[C@H](O)[C@@H](Nc2ncnc3[nH]cnc23)O[C@H]1C
result: Non-toxic
--
entry.smiles: CCCCCCCCCCCC(=O)NCC(=O)N[C@@H]1[C@@H](O)[C@H](O)[C@@H](Nc2ncnc3[nH]cnc23)O[C@H]1CO
result: Non-toxic
--
entry.smiles: CC(C)CCCCCCCCCCCCC(=O)NCC(=O)N[C@@H]1[C@@H](O)[C@H](O)[C@@H](Nc2ncnc3[nH]cnc23)O[C@H]1CO
result: Non-toxic
--
entry.smiles: CCCCCC(=O)NCC(=O)N[C@@H]1[C@@H](O)[C@H](O)[C@@H](Nc2ncnc3[nH]cnc23)O[C@H]1C
result: Non-toxic

====

Entries annotated with measured EC50
tested on: L1210; experiment: Inhibition of DNA synthesis in mouse L1210 cells after 3 hrs by [3H]thymidine incorporation assay; format: functional; conditions: L1210, 3 h, read-out: ED50 (the source's name)

compound: CCOCCC(=O)NCC(=O)N[C@@H]1[C@@H](O)[C@H](O)[C@@H](Nc2ncnc3[nH]cnc23)O[C@H]1C
EC50: > 1000 µM

compound: CCCCCCCCCCCC(=O)NCC(=O)N[C@@H]1[C@@H](O)[C@H](O)[C@@H](Nc2ncnc3[nH]cnc23)O[C@H]1CO
EC50: 20 µM

compound: CC(C)CCCCCCCCCCCCC(=O)N[C@@H]1[C@@H](O)[C@H](O)[C@@H](Nc2ncnc3[nH]cnc23)O[C@H]1C
EC50: > 1000 µM

Kindly consider the entry below.
Request: Quick check: EC50 of CCCCCCCCCCCCCCCCC(NC(C)=O)C(=O)N[C@@H]1[C@@H](O)[C@H](O)[C@@H](Nc2ncnc3[nH]cnc23)O[C@H]1C (some centres undefined) ?
Response: > 1000 µM

====

Entries annotated with measured EC50
system: L1210; experiment: Inhibition of DNA synthesis in mouse L1210 cells after 3 hrs by [3H]thymidine incorporation assay; format: functional; conditions: L1210, 3 h, read-out: ED50 (the source's name)
Response body: numeric value in µM, unit text excluded.

compound: CC(C)CCCCCCCCCCCCC(=O)NCC(=O)N[C@@H]1[C@@H](O)[C@H](O)[C@@H](Nc2ncnc3[nH]cnc23)O[C@H]1CO
EC50, µM: 1.6
--
compound: CC(C)CCCCCCCCCCCCC(=O)NCC(=O)N[C@@H]1[C@@H](O)[C@H](O)[C@@H](Nc2ncnc3[nH]cnc23)O[C@H]1C(O)CO (some centres undefined)
EC50, µM: 0.4

Request: GET /values?readout=EC50&system=L1210&item= CC(C)CCCCCCCCCCCCC(=O)NCC(=O)N[C@@H]1[C@@H](O)[C@H](O)[C@@H](Nc2ncnc3[nH]cnc23)O[C@H]1C
Response: 1.8

====

test system: Salmonella typhimurium; assay: Mutagenicity in Salmonella typhimurium TA1536 by Ames test; assay type: toxicity, organism-based; details: salmonella enterica subsp. enterica serovar typhimurium
endpoint.name: Activity

entry.smiles: CCCCCCCCCCCC(=O)NCC(=O)N[C@@H]1[C@@H](O)[C@H](O)[C@@H](Nc2ncnc3[nH]cnc23)O[C@H]1CO
result: Non-toxic

entry.smiles: CC(C)CCCCCCCCCCCCC(=O)NCC(=O)N[C@@H]1[C@@H](O)[C@H](O)[C@@H](Nc2ncnc3[nH]cnc23)O[C@H]1CO
result: Non-toxic

entry.smiles: CC(C)CCCCCCCCCCCCC(=O)N[C@@H]1[C@@H](O)[C@H](O)[C@@H](Nc2ncnc3[nH]cnc23)O[C@H]1C
result: Non-toxic

entry.smiles: CCCCCC(=O)NCC(=O)N[C@@H]1[C@@H](O)[C@H](O)[C@@H](Nc2ncnc3[nH]cnc23)O[C@H]1C
result: Non-toxic

====

test system: Calf thymus DNA; assay: Binding affinity to calf thymus helical DNA assessed as change in melting temperature by […] analysis; assay type: nucleic-acid assay; settings: Bos taurus; further: test concentration or dose not given here
Entries annotated with measured ΔTm
Response body: numeric value in °C, unit text excluded.

Answered cases to consult:
entry.smiles: CC(C)CCCCCCCCCCCCC(=O)NCC(=O)N[C@@H]1[C@@H](O)[C@H](O)[C@@H](Nc2ncnc3[nH]cnc23)O[C@H]1C
ΔTm, °C: 0.6
//
entry.smiles: CCOCCC(=O)NCC(=O)N[C@@H]1[C@@H](O)[C@H](O)[C@@H](Nc2ncnc3[nH]cnc23)O[C@H]1CO
ΔTm, °C: 0.4
//
entry.smiles: CCCCCCCCCCCC(=O)NCC(=O)N[C@@H]1[C@@H](O)[C@H](O)[C@@H](Nc2ncnc3[nH]cnc23)O[C@H]1CO
ΔTm, °C: 0.5
//
entry.smiles: CC(C)CCCCCCCCCCCCC(=O)NCC(=O)N[C@@H]1[C@@H](O)[C@H](O)[C@@H](Nc2ncnc3[nH]cnc23)O[C@H]1CO
ΔTm, °C: 1.7
//
entry.smiles: CC(C)CCCCCCCCCCCCC(=O)N[C@@H]1[C@@H](O)[C@H](O)[C@@H](Nc2ncnc3[nH]cnc23)O[C@H]1C
ΔTm, °C: 0.5
//
entry.smiles: CCCCCCCCCCCCCCCC(=O)NCC(=O)N[C@@H]1[C@@H](O)[C@H](O)[C@@H](Nc2ncnc3[nH]cnc23)O[C@H]1CO
ΔTm, °C: 3.6

Kindly consider the entry below.
Request: Quick check: ΔTm of COc1cccc2c1C(=O)c1c(O)c3c(c(O)c1C2=O)C[C@@](O)(C(=O)CO)C[C@@H]3O[C@H]1C[C@H](N)[C@H](O)[C@H](C)O1 ?
Response: 13.6

====

Entries annotated with measured EC50
test system: L1210; test: Inhibition of DNA synthesis in mouse L1210 cells after 3 hrs by [3H]thymidine incorporation assay; format: functional; conditions: L1210, 3 h, read-out: ED50 (the source's name)
Response body: numeric value in µM, unit text excluded.

Answered cases to consult:
compound: CCCCCCCCCCCCCCCC(=O)NCC(=O)N[C@@H]1[C@@H](O)[C@H](O)[C@@H](Nc2ncnc3[nH]cnc23)O[C@H]1CO
system.name: L1210
unit.tag: µM
EC50: 2.5

compound: COc1cccc2c1C(=O)c1c(O)c3c(c(O)c1C2=O)C[C@@](O)(C(=O)CO)C[C@@H]3O[C@H]1C[C@H](N)[C@H](O)[C@H](C)O1 [DOXORUBICIN]
system.name: L1210
unit.tag: µM
EC50: 1.5

Request: GET /values?readout=EC50&system=L1210&item= CCCCCCCCCCCC(=O)NCC(=O)N[C@@H]1[C@@H](O)[C@H](O)[C@@H](Nc2ncnc3[nH]cnc23)O[C@H]1C
Response: 29

====

test system: Salmonella typhimurium; test: Mutagenicity in Salmonella typhimurium TA1536 by Ames test in presence of S9 fraction; type: toxicity, organism-based; conditions: salmonella enterica subsp. enterica serovar typhimurium

entry.smiles: CCCCCC(=O)NCC(=O)N[C@@H]1[C@@H](O)[C@H](O)[C@@H](Nc2ncnc3[nH]cnc23)O[C@H]1C
Activity: Non-toxic
--
entry.smiles: CC(C)CCCCCCCCCCCCC(=O)N[C@@H]1[C@@H](O)[C@H](O)[C@@H](Nc2ncnc3[nH]cnc23)O[C@H]1C
Activity: Non-toxic
--
entry.smiles: CCCCCCCCCCCC(=O)NCC(=O)N[C@@H]1[C@@H](O)[C@H](O)[C@@H](Nc2ncnc3[nH]cnc23)O[C@H]1CO
Activity: Non-toxic
--
entry.smiles: CC(C)CCCCCCCCCCCCC(=O)NCC(=O)N[C@@H]1[C@@H](O)[C@H](O)[C@@H](Nc2ncnc3[nH]cnc23)O[C@H]1CO
Activity: Non-toxic

This collection of values is drawn from ChEMBL document CHEMBL3272326.
